Recorded Measured fresh weight survival rate (%) - E by entry
# Test system: Bromus japonicus
# experimentNotes: Pot experiment, soil treatment, control of Bromus japonicus (fresh weight, Colby)
# Type: in vivo
# cond: g ai/ha: pyroxasulfone 22.5; fluorochloridone 62.5; aclonifen 300; diflufenican 28.125; terbutryn 281.25; mixtures: both AIs at these rates; after 35 days
measuredMetric: Measured fresh weight survival rate (%) - E

compound	unitSymbol	assayValue
CCNc1nc(NC(C)(C)C)nc(SC)n1 [terbutryn]	%	0.0
O=C(Nc1ccc(F)cc1F)c1cccnc1Oc1cccc(C(F)(F)F)c1 [diflufenican]	%	26.8
Nc1c([N+](=O)[O-])ccc(Oc2ccccc2)c1Cl [aclonifen, 2-chloro-6-nitrio-3-phenoxyaniline]	%	13.4
Cn1nc(C(F)(F)F)c(CS(=O)(=O)C2=NOC(C)(C)C2)c1OC(F)F [pyroxasulfone]	%	11.3
